Numbers sourced from the supplement of paper PMC9732359.

Assay: protein stability index of a GFP-peptide fusion (yeast GPS) (PSI 1-4); higher = more stable; sorted into four equal gates, so the index is relative within each strain
Measurement context: san1∆
Readout type: protein stability index
API note: the answer field is a bare number with no unit suffix.

Solved entries (count: 8):
Sequence data	protein stability index
MINRLLLCALDRKDQDD [RPB2]	2.11
LIVIDVVEGVTFVVEQL [SNU114]	2.56
AKLNYKNLNPASSSPSS [ECM29]	2.79
QLEKKIRFVCLSNCLAN [BRR2]	1.31
LDGVSYLHQNWVLHRDL [SSN3]	2.77
TEDGWIYHGNHDVGELF [PRE2]	2
TGLKLYSRITLIIDDPS [RPP1]	2.17
LLTLTNAANVPVENIWA [RPP1A]	2.48

Per the records, this sequence ( KVDIFEIPETGEYSVKL [FAS2] ) has protein stability index equal to 3.27

Per the records, this sequence ( DRVAKVLTYPEKVTRYN [RPO31] ) has protein stability index equal to 2.94

Per the records, this sequence ( MKVKADRDESSPYAAML [RPS14A] ) has protein stability index equal to 3.23

Per the records, this sequence ( FTVNVLYPDSSSFKKNL [RPN3] ) has protein stability index equal to 2.55

Per the records, this sequence ( QLEEDENITNKVTEKVL [CSI1] ) has protein stability index equal to 3.33

Per the records, this sequence ( SKPVLIVGQKNLNRAFN [DIS3] ) has protein stability index equal to 2.77

* * *

Assay: protein stability index of a GFP-peptide fusion (yeast GPS) (PSI 1-4); higher = more stable; sorted into four equal gates, so the index is relative within each strain
Measurement context: pdr5∆
Answer rule not met if protein stability index is under 3, and rule met if it is 3 or more.

Solved cases below.
Sequence data	Category label
HQNESSAASIPPQQTYH [RPN4]	rule not met
FATNEERQMNFLTNELI [SWI3]	rule not met
DLLKNAPLFKKNSSRPM [SMD3]	rule not met
NAYGFIEWCSRCNDNLM [YJL039C/NUP192]	rule not met
KEFDETIFNLPKNKLVP [FAS1]	rule met

In: Determine whether this sequence has protein stability index no lower than 3: SLFELIVPIFQLISAVL [YJL039C/NUP192]
Out: rule not met

In: Determine whether this sequence has protein stability index no lower than 3: IYNKMIGVLNNSSESDE [RPN13]
Out: rule met

In: Determine whether this sequence has protein stability index no lower than 3: GTLLREDDNTPAGHAGN [YDL088C/ASM4]
Out: rule not met

In: Determine whether this sequence has protein stability index no lower than 3: VPPVENFPVRQWSIEIV [TAF14]
Out: rule not met

In: Determine whether this sequence has protein stability index no lower than 3: ALLIEVFTALLRLFINE [ITC1]
Out: rule not met

In: Determine whether this sequence has protein stability index no lower than 3: AIVPGQSISGTLELSAQ [SWP82]
Out: rule met

In: Determine whether this sequence has protein stability index no lower than 3: YMDSMNEKVAVMRNTYN [GAL11]
Out: rule met

In: Determine whether this sequence has protein stability index no lower than 3: KRTRLESLKNLNESRSQ [SMC3]
Out: rule not met

In: Determine whether this sequence has protein stability index no lower than 3: LSRGDDEVTIRRTVGLK [SMC3]
Out: rule not met

In: Determine whether this sequence has protein stability index no lower than 3: YCHEKELTIIKNPRVTK [CSN9]
Out: rule not met
